Target chain: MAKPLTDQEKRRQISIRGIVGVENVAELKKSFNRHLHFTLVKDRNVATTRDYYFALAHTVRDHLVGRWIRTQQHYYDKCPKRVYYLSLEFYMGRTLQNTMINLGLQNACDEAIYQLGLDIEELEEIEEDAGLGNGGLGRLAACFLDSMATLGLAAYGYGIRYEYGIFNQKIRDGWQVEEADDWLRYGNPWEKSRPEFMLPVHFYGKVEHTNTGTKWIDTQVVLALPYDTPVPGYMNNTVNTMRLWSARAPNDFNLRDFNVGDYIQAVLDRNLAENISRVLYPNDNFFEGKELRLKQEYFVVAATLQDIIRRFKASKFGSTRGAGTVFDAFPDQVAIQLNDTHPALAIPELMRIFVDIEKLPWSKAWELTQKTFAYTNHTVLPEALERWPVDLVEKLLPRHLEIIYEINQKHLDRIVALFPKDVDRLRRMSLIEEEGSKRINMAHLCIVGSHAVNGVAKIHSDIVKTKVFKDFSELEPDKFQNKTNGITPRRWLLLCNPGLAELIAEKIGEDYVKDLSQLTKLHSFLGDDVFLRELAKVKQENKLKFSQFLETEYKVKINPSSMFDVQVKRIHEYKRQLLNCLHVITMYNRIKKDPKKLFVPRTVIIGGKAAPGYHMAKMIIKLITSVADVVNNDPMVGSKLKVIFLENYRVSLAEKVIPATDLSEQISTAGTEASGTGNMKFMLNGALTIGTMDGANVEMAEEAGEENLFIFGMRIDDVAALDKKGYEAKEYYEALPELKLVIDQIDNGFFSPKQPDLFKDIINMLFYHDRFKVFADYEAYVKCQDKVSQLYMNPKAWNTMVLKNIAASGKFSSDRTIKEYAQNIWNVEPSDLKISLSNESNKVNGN
QUANTITY MEASURED: IC50 (nM)
Field format: number, assumed nM, no unit text.

COC(=O)[C@H]1CCCN1C(=O)c1ccccc1NC(=O)NC(=O)c1cc(F)c(F)cc1Cl : 570

Let's switch to this molecule now.
Give recorded IC50. O=C(NC(=O)c1cc(F)c(F)cc1Cl)Nc1ccccc1C(=O)N1CCCC1C(=O)O (centres unmarked)
120
